# Test system: skin above the upper lip
# EXPERIMENT_DESCRIPTION: Cooling sensation on facial skin, ointment applied to skin above the upper lip
# Assay type: in vivo, human
# RUN_CONDITIONS: 40 mM (1% wt/vol) ointment, skin above upper lip

>  <COMPOUND>
CCOC(=O)[C@@H](C)NC(=O)[C@@H]1C[C@H](C)CC[C@H]1C(C)C

>  <Duration of Skin Cooling>
2.4 h

$$$$
>  <COMPOUND>
CC(C)[C@@H]1CC[C@@H](C)C[C@H]1C(=O)N[C@H]1CCOC1=O

>  <Duration of Skin Cooling>
1.4 h

$$$$
>  <COMPOUND>
CCCCOc1ccc(NC(=O)C2CC(C)CCC2C(C)C)cc1 (stereo not drawn)

>  <Duration of Skin Cooling>
not active

$$$$
>  <COMPOUND>
COC(=O)C(NC(=O)C1CC(C)CCC1C(C)C)C(C)C (stereo not drawn)

>  <Duration of Skin Cooling>
not active

$$$$
>  <COMPOUND>
COc1ccc(NC(=O)C2CC(C)CCC2C(C)C)c(OC)c1 (stereo not drawn)

>  <Duration of Skin Cooling>
0.6 h

$$$$
>  <COMPOUND>
CCOC(=O)CCNC(=O)C1CC(C)CCC1C(C)C (stereo not drawn)

>  <Duration of Skin Cooling>
1.4 h

$$$$
>  <COMPOUND>
CC1CCC(C(C)C)C(C(=O)NC(C)(C)C)C1 (stereo not drawn) [WS-14, reference compound]

>  <Duration of Skin Cooling>
0.1 h

$$$$
>  <COMPOUND>
COC(=O)CNC(=O)C1CC(C)CCC1C(C)C (stereo not drawn) [Gly Me Ester (WS-31), reference compound]

>  <Duration of Skin Cooling>
0.3 h

$$$$
>  <COMPOUND>
COC(=O)C(C)NC(=O)C1CC(C)CCC1C(C)C (stereo not drawn)

>  <Duration of Skin Cooling>
1.3 h

$$$$
>  <COMPOUND>
CC(C)[C@@H]1CC[C@@H](C)C[C@H]1C(=O)NC1CCOC1=O (mixture of isomers) [racemic Hsl]

>  <Duration of Skin Cooling>
1.4 h

$$$$
>  <COMPOUND>
COC(=O)CCC(NC(=O)C1CC(C)CCC1C(C)C)C(=O)OC (stereo not drawn)

>  <Duration of Skin Cooling>
not active

$$$$
>  <COMPOUND>
CC(C)[C@@H]1CC[C@@H](C)C[C@H]1O [(−)-menthol, reference compound]

>  <Duration of Skin Cooling>
0.3 h

$$$$
>  <COMPOUND>
CCOC(=O)C(C)NC(=O)C1CC(C)CCC1C(C)C (stereo not drawn)

>  <Duration of Skin Cooling>
0.7 h

$$$$
>  <COMPOUND>
CCOC(=O)CNC(=O)[C@@H]1C[C@H](C)CC[C@H]1C(C)C [Gly Et Ester (WS-5), N-p-menthanecarbonyl glycine ethyl ester, reference compound]

>  <Duration of Skin Cooling>
0.5 h

$$$$
>  <COMPOUND>
CCOC(=O)CN(C)C(=O)C1CC(C)CCC1C(C)C (stereo not drawn)

>  <Duration of Skin Cooling>
1.0 h

$$$$
>  <COMPOUND>
CC1CCC(C(C)C)C(C(=O)NC(C)(C)CO)C1 (stereo not drawn) [WS-11, reference compound]

>  <Duration of Skin Cooling>
0.2 h

$$$$
>  <COMPOUND>
CC(C)[C@@H]1CC[C@@H](C)C[C@H]1C(=O)N[C@@H]1CCOC1=O

>  <Duration of Skin Cooling>
1.3 h

$$$$
>  <COMPOUND>
CC1CCC(C(C)C)C(C(=O)NC(C)C)C1 (stereo not drawn) [WS-10, reference compound]

>  <Duration of Skin Cooling>
0.3 h

$$$$
